B1: BBSome complex member BBS2 (Homo sapiens), Q9BXC9 (parent)
chain: MLLPVFTLKLRHKISPRMVAIGRYDGTHPCLAAATQTGKVFIHNPHTRNQHVSASRVFQSPLESDVSLLSINQAVSCLTAGVLNPELGYDALLVGTQTNLLAYDVYNNSDLFYREVADGANAIVLGTLGDISSPLAIIGGNCALQGFNHEGSDLFWTVTGDNVNSLALCDFDGDGKKELLVGSEDFDIRVFKEDEIVAEMTETEIVTSLCPMYGSRFGYALSNGTVGVYDKTSRYWRIKSKNHAMSIHAFDLNSDGVNELITGWSNGKVDARSDRTGEVIFKDNFSSAIAGVVEGDYRMDGHIQLICCSVDGEIRGYLPGTAEMRGNLMDTSAEQDLIRELSQKKQNLLLELRNYEENAKAELASPLNEADGHRGIIPANTRLHTTLSVSLGNETQTAHTELRISTSNDTIIRAVLIFAEGIFTGESHVVHPSIHNLSSSICIPIVPPKDVPVDLHLKAFVGYRSSTQFHVFESTRQLPRFSMYALTSLDPASEPISYVNFTIAERAQRVVVWLGQNFLLPEDTHIQNAPFQVCFTSLRNGGHLHIKIKLSGEITINTDDIDLAGDIIQSMASFFAIEDLQVEADFPVYFEELRKVLVKVDEYHSVHQKLSADMADHSNLIRSLLVGAEDARLMRDMKTMKSRYMELYDLNRDLLNGYKIRCNNHTELLGNLKAVNQAIQRAGRLRVGKPKNQVITACRDAIRSNNINTLFKIMRVGTASS
partner: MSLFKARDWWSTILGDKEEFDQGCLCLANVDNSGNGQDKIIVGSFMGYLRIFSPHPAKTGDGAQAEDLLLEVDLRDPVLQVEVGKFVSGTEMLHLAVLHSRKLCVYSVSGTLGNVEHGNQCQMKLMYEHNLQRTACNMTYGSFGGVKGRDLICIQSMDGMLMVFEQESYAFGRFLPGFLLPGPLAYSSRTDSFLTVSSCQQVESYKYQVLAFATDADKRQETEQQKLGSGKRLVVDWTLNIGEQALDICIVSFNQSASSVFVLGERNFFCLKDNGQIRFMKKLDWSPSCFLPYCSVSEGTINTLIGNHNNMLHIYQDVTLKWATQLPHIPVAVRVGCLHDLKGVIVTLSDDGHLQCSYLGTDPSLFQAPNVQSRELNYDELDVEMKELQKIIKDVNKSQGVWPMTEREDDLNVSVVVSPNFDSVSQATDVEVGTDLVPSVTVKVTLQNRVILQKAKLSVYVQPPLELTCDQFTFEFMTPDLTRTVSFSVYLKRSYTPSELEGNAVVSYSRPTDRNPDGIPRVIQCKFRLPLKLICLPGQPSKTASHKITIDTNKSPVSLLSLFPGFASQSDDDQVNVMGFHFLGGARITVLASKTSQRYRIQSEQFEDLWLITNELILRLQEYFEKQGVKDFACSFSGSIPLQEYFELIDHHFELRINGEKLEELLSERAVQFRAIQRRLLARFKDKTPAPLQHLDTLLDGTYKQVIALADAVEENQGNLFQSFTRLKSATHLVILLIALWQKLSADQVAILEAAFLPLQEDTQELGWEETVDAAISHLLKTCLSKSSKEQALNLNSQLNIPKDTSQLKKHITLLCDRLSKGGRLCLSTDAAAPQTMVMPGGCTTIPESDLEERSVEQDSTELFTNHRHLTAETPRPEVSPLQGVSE

Variants of: B1
SETTINGS: with pthb1_human BBS9, Q3SYG4
ENDPOINT_NAME: effect of a mutation on the interaction

{"VARIANT_ANNOTATION": "D559A", "ENDPOINT_NAME": "effect of a mutation on the interaction", "OBS_VALUE": "with no effect"}
{"VARIANT_ANNOTATION": "I713A", "ENDPOINT_NAME": "effect of a mutation on the interaction", "OBS_VALUE": "with no effect"}
{"VARIANT_ANNOTATION": "A485K", "ENDPOINT_NAME": "effect of a mutation on the interaction", "OBS_VALUE": "with no effect"}
{"VARIANT_ANNOTATION": "I567E", "ENDPOINT_NAME": "effect of a mutation on the interaction", "OBS_VALUE": "with no effect"}
{"VARIANT_ANNOTATION": "S497E", "ENDPOINT_NAME": "effect of a mutation on the interaction", "OBS_VALUE": "with no effect"}
{"VARIANT_ANNOTATION": "P448K", "ENDPOINT_NAME": "effect of a mutation on the interaction", "OBS_VALUE": "with no effect"}
{"VARIANT_ANNOTATION": "L328A", "ENDPOINT_NAME": "effect of a mutation on the interaction", "OBS_VALUE": "with no effect"}
{"VARIANT_ANNOTATION": "S605A", "ENDPOINT_NAME": "effect of a mutation on the interaction", "OBS_VALUE": "with no effect"}
{"VARIANT_ANNOTATION": "K599A", "ENDPOINT_NAME": "effect of a mutation on the interaction", "OBS_VALUE": "with no effect"}
{"VARIANT_ANNOTATION": "A504K", "ENDPOINT_NAME": "effect of a mutation on the interaction", "OBS_VALUE": "with no effect"}
{"VARIANT_ANNOTATION": "C442E", "ENDPOINT_NAME": "effect of a mutation on the interaction", "OBS_VALUE": "with no effect"}
{"VARIANT_ANNOTATION": "C662A", "ENDPOINT_NAME": "effect of a mutation on the interaction", "OBS_VALUE": "with no effect"}
{"VARIANT_ANNOTATION": "L341E", "ENDPOINT_NAME": "effect of a mutation on the interaction", "OBS_VALUE": "with no effect"}
{"VARIANT_ANNOTATION": "R622E", "ENDPOINT_NAME": "effect of a mutation on the interaction", "OBS_VALUE": "with no effect"}
{"VARIANT_ANNOTATION": "N354E", "ENDPOINT_NAME": "effect of a mutation on the interaction", "OBS_VALUE": "with no effect"}
{"VARIANT_ANNOTATION": "V533K", "ENDPOINT_NAME": "effect of a mutation on the interaction", "OBS_VALUE": "with no effect"}
{"VARIANT_ANNOTATION": "I404A", "ENDPOINT_NAME": "effect of a mutation on the interaction", "OBS_VALUE": "with no effect"}
{"VARIANT_ANNOTATION": "R699K", "ENDPOINT_NAME": "effect of a mutation on the interaction", "OBS_VALUE": "with no effect"}
{"VARIANT_ANNOTATION": "T502E", "ENDPOINT_NAME": "effect of a mutation on the interaction", "OBS_VALUE": "with no effect"}
{"VARIANT_ANNOTATION": "N692A", "ENDPOINT_NAME": "effect of a mutation on the interaction", "OBS_VALUE": "with no effect"}
{"VARIANT_ANNOTATION": "R703K", "ENDPOINT_NAME": "effect of a mutation on the interaction", "OBS_VALUE": "with no effect"}
{"VARIANT_ANNOTATION": "A682E", "ENDPOINT_NAME": "effect of a mutation on the interaction", "OBS_VALUE": "with no effect"}
